# SYSTEM UNDER TEST: SmCB1 (Schistosoma mansoni, UniProt Q8MNY2, T185A/T300A)
# Sequence (Q8MNY2 87-340 T185A/T300A): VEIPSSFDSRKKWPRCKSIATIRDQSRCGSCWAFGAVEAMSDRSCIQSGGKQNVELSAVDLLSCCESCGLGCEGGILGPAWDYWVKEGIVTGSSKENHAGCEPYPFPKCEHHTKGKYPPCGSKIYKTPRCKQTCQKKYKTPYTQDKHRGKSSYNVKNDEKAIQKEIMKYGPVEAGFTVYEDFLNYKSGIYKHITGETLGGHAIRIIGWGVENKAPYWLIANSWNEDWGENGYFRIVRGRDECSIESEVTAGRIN
# TEST NAME: SmCB1 kinetic inhibition assay (IC50) with fluorogenic substrate Cbz–Phe–Arg–AMC
# Format: biochemical
# PARTICULARS: recombinant SmCB1, Cbz–Phe–Arg–AMC, pH 5.5; mean ± SE, triplicate; n.i.: no significant inhibition at 100 μM
# Procedure: Thirty-four peptidomimetic vinyl sulfone analogs (including vinyl sulfonamides and vinyl sulfonate esters) were explored as potential inhibitors of SmCB1 to infer the structural requirements of the inhibitor-binding subsites in the enzyme active site cleft. […] The compounds were screened in vitro against recombinant SmCB1, and their IC50 values were determined using a kinetic inhibition assay with the fluorogenic substrate Cbz–Phe–Arg–AMC. […]
pIC50: −log10 of the molar value.
EXPERIMENTAL ENDPOINT: pIC50

• CCC[C@@H](/C=C/S(=O)(=O)c1ccccc1)NC(=O)[C@H](CSCc1ccccn1)NC1=NS(=O)(=O)c2ccccc21 = 5.46
• CCC[C@@H](/C=C/S(=O)(=O)c1ccccc1)NC(=O)[C@H](Cc1ccc(F)cc1)NC(=O)N1CCC(N2CCOCC2)CC1 = 6.69
• CCCC[C@@H](/C=C/S(=O)(=O)c1ccccc1)NC(=O)[C@@H](N)Cc1cc(I)c(O)c(I)c1 = 6.37
• C[C@@H](/C=C/S(=O)(=O)NCc1ccc(F)cc1)NC(=O)[C@H](Cc1ccccc1)NC(=O)OCc1ccccc1 = 5.90
• C[C@@H](/C=C/S(=O)(=O)Oc1ccccc1)NC(=O)[C@H](Cc1ccccc1)NC(=O)OCc1ccccc1 = 8.59
• O=C(N[C@@H](Cc1ccccc1)C(=O)N[C@H](/C=C/S(=O)(=O)c1ccccn1)CCc1ccccc1)OCc1ccccc1 = 8.82
• O=C(N[C@@H](Cc1cc(I)c(O)c(I)c1)C(=O)N[C@H](/C=C/S(=O)(=O)c1ccccc1)CCc1ccccc1)c1ccc(N2CCOCC2)cc1 = 6.18
• CNS(=O)(=O)/C=C/[C@H](C)NC(=O)[C@H](Cc1ccccc1)NC(=O)OCc1ccccc1 = 7.03
• C[C@@H](/C=C/S(=O)(=O)NCc1ccc(F)cc1F)NC(=O)[C@H](Cc1ccccc1)NC(=O)OCc1ccccc1 = 5.95
• O=C(N[C@H](/C=C/S(=O)(=O)c1ccccc1)CCc1ccccc1)[C@H](CS(=O)(=O)Cc1ccccc1OC(F)F)NC(=O)N1CCOCC1 = 6.32
• CCCC[C@@H](/C=C/S(=O)(=O)c1ccccc1)NC(=O)[C@H](Cc1ccccc1)NC(=O)N1CCC(N2CCCCC2)CC1 = 8.12
• O=C(N[C@H](/C=C/S(=O)(=O)c1ccccc1)CCc1ccccc1)[C@H](CS(=O)(=O)Cc1ccccc1)NC(=O)N1CCOCC1 = 6.67
• CCC[C@@H](/C=C/S(=O)(=O)c1ccccc1)NC(=O)[C@H](CC1CCCCC1)NC=NS(=O)(=O)c1ccccc1 = 5.00
• CCC[C@@H](/C=C/S(=O)(=O)c1ccccc1)NC(=O)[C@H](Cc1ccccc1)NC(=O)N1CCC(N2CCOCC2)CC1 = 7.35
• O=C(N[C@H](/C=C/S(=O)(=O)c1ccccc1)CCc1ccccc1)[C@H](CCS(=O)(=O)c1ccccc1)NC(=O)N1CCOCC1 = 6.73
• C[C@@H](/C=C/S(=O)(=O)NCCc1ccccc1)NC(=O)[C@H](Cc1ccccc1)NC(=O)OCc1ccccc1 = 6.20
• O=C(N[C@@H](Cc1ccccc1)C(=O)N[C@H](/C=C/S(=O)(=O)Oc1ccc([N+](=O)[O-])cc1)CCc1ccccc1)OCc1ccccc1 = 7.30
• C[C@@H](/C=C/S(=O)(=O)NCc1ccc(Cl)cc1)NC(=O)[C@H](Cc1ccccc1)NC(=O)OCc1ccccc1 = 6.27
• O=C(N[C@H](/C=C/S(=O)(=O)c1ccccc1)CCc1ccccc1)[C@H](Cc1ccccc1)NC(=O)N1CCC(N2CCOCC2)CC1 = 8.22
• CN1CCN(C(=O)N[C@@H](Cc2ccccc2)C(=O)N[C@H](/C=C/S(=O)(=O)Oc2ccc(F)cc2)CCc2ccccc2)CC1 = 6.92
• CCCC[C@@H](/C=C/S(=O)(=O)c1ccccc1)NC(=O)[C@H](Cc1cc(I)c(O)c(I)c1)NC(=O)OC(C)(C)C = 5.20
• O=C(N[C@@H](Cc1ccccc1)C(=O)N[C@H](/C=C/S(=O)(=O)CCc1ccccc1)CCc1ccccc1)OCc1ccccc1 = 5.02
• CCOC(=O)C1CCN(C(=O)N[C@@H](CC2CCCCC2)C(=O)N[C@H](/C=C/S(=O)(=O)c2ccccc2)CCc2ccccc2)CC1 = 7.14
• CCCC[C@@H](/C=C/S(=O)(=O)c1ccccc1)NC(=O)[C@H](Cc1ccccc1)NC(=O)N1CCC(N2CCOCC2)CC1 = 7.88
